Reported mIL-2 (pg/mL), antigen-specific T lymphocyte stimulation test; antibody 0.016 ug/mL values follow for various binders
# Study system: T1, human LAG-3 (full length, on the cell surface) (human, UniProt P18627 23-525)
# T1 sequence: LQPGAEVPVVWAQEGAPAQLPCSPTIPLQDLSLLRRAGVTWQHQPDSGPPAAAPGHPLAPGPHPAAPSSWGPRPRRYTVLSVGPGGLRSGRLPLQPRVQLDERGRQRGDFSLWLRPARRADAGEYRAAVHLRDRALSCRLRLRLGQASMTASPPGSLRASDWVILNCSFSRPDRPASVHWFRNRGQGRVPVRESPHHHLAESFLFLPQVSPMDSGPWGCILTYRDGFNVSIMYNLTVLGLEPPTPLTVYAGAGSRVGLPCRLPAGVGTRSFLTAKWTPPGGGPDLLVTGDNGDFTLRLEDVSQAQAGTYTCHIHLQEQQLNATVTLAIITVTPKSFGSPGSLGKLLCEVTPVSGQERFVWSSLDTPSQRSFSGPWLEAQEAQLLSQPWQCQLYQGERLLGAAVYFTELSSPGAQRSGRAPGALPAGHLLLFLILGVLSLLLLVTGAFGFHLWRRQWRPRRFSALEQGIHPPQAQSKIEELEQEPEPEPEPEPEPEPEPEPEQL
# Test summary: cell-based or functional assay
Measurement type: mIL-2 (pg/mL), antigen-specific T lymphocyte stimulation test; antibody 0.016 ug/mL

Binder	Unit annotation	Result value
556F6B8 (mouse antibody purified from hybridoma) (antibody, V domains shown, also called mAb123-556F6B8) VH: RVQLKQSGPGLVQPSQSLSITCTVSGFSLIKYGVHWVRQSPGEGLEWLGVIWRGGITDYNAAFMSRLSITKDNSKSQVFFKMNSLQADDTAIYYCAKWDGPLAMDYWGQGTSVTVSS VL: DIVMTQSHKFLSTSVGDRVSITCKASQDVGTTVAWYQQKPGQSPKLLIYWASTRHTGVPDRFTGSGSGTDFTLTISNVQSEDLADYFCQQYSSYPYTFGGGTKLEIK	pg/mL	88.3
409D4E10 (mouse antibody purified from hybridoma) (antibody, V domains shown, also called mAb112-409D4E10) VH: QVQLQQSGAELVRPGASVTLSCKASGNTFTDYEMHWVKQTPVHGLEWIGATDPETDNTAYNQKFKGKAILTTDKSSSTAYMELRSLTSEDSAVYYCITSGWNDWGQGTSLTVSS VL: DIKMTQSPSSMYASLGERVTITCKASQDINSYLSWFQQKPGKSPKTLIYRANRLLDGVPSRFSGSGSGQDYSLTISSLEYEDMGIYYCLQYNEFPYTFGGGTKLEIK	pg/mL	172
409B11E12 (mouse antibody purified from hybridoma) (antibody, V domains shown, also called mAb104-409B11E12) VH: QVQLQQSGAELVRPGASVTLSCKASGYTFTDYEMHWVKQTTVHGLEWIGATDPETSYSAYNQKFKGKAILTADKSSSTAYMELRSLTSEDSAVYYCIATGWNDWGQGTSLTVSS VL: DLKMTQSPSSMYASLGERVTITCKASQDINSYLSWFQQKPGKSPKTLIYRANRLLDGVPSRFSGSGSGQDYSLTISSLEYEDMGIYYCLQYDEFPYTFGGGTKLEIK	pg/mL	187
405B8H3 (mouse antibody purified from hybridoma) (antibody, V domains shown, also called mAb103-405B8H3; 405B81-13) VH: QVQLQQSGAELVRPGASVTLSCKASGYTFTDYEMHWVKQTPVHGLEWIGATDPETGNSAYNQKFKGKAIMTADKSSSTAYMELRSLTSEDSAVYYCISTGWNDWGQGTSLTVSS VL: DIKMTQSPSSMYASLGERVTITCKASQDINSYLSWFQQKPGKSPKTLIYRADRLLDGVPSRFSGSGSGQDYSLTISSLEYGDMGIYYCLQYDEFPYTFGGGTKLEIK	pg/mL	205
